All figures here come from paper PMC6256987.

System: Mycobacterium avium complex CIT19/06
assayNotes: In vitro antimycobacterial evaluation (alamarBlue, 96 well plate)
Type: cell-based
experimentalConditions: 120 h, Middlebrook broth, 37 °C 5 days, read-out: MIC/IC90 M. avium complex
observable: MIC

1) Oc1c(Cl)cc(Cl)c2ccc(C=Cc3ccc(C=Cc4ccc5c(Cl)cc(Cl)c(O)c5n4)cc3)nc12: > 300 µg/mL
2) Oc1ccc(C=Cc2ccc3c(Cl)cc(Cl)c(O)c3n2)c(O)c1: > 100 µg/mL

Query string: // returns reported MIC for input CC(=O)Oc1ccc(O)c(C=Cc2ccc3c(Cl)cc(Cl)c(O)c3n2)c1
Result string: > 300 µg/mL

Query string: Form field: reported MIC of Oc1ccc(C=Cc2ccc3c(Cl)cc(Cl)c(O)c3n2)cc1
Result string: > 300 µg/mL

Query string: Which value of MIC has been reported for NC(=O)c1cnccn1 [PZA, pyrazinamide, reference compound] in the records?
Result string: > 100 µg/mL

Query string: Which MIC value belongs to Oc1cc(O)cc(C=Cc2ccc3c(Cl)cc(Cl)c(O)c3n2)c1 ?
Result string: > 300 µg/mL

Query string: Which value of MIC has been reported for NNC(=O)c1ccncc1 [INH, isoniazid, reference compound] in the records?
Result string: < 10 µg/mL

====

Reported log k values for the following compounds.
assayNotes: Lipophilicity determination by RP-HPLC (capacity factor k / log k)
Type: physicochemical
experimentalConditions: C18 column, isocratic MeOH 55.0% / H2O 45.0%
Output spec: single numeric token, no unit.

Example compounds with recorded log k:
1) O=[N+]([O-])c1ccc(O)c2ncccc12: 0.5695
2) O=[N+]([O-])c1cc(S(=O)(=O)O)c2cccnc2c1O: 0.1479
3) Oc1ccc(C=Cc2ccc3c(Cl)cc(Cl)c(O)c3n2)cc1: 1.5866
4) Oc1c(Cl)cc(Cl)c2ccc(C=Cc3ccc(C=Cc4ccc5c(Cl)cc(Cl)c(O)c5n4)cc3)nc12: 2.5760
5) O=S(=O)(c1ccc(O)c2ncccc12)N1CCOCC1: 0.3293
6) CC(=O)Nc1ccc2cccc(OC(C)=O)c2n1 [Compound 8, 2-Acetylaminoquinolin-8-yl acetate]: 0.3583

Query string: Which log k is reported for this compound? Oc1ccc(C=Cc2ccc3c(Cl)cc(Cl)c(O)c3n2)c(O)c1
Result string: 1.5858

Query string: Item under review: Oc1ccccc1C=Cc1ccc2c(Cl)cc(Cl)c(O)c2n1 . Reported log k?
Result string: 1.5854

====

Test system: Candida tropicalis 156
assayNotes: In vitro antifungal broth microdilution test
Format: cell-based
experimentalConditions: Candida tropicalis, 156; 48h, 35 °C, RPMI 1640 pH 7.0, CLSI M27-A2 (IC80 value)
Let's look at some molecules and their measured MIC.
Supply the numeric figure in µM, leaving out any unit text.

Take a look at these entries with their results.
1) O=S(=O)(O)c1cc(Br)c(O)c2ncccc12 [Compound 3]: 3.9
2) O=S(=O)(NCCc1ccccc1)c1ccc(O)c2ncccc12 [Compound 6]: 125

Query string: Endpoint output: MIC of Oc1c(Cl)cc(Cl)c2ccc(C=Cc3ccc(C=Cc4ccc5c(Cl)cc(Cl)c(O)c5n4)cc3)nc12 [Compound 14] . Value?
Result string: 7.81

Query string: For O=S(=O)(c1ccc(O)c2ncccc12)N1CCOCC1 [Compound 4, 5-(Morpholine-4-sulfonyl)quinolin-8-ol] , what is its reported MIC?
Result string: 500

Query string: Recorded MIC of CC(=O)Nc1ccc2cccc(OC(C)=O)c2n1 [Compound 8, 2-Acetylaminoquinolin-8-yl acetate] , please.
Result string: 31.2
